experimentalTarget: DNMT1 (Homo sapiens, UniProt P26358 P26358:1-1616)
Sequence (P26358 whole entry, one chain of several): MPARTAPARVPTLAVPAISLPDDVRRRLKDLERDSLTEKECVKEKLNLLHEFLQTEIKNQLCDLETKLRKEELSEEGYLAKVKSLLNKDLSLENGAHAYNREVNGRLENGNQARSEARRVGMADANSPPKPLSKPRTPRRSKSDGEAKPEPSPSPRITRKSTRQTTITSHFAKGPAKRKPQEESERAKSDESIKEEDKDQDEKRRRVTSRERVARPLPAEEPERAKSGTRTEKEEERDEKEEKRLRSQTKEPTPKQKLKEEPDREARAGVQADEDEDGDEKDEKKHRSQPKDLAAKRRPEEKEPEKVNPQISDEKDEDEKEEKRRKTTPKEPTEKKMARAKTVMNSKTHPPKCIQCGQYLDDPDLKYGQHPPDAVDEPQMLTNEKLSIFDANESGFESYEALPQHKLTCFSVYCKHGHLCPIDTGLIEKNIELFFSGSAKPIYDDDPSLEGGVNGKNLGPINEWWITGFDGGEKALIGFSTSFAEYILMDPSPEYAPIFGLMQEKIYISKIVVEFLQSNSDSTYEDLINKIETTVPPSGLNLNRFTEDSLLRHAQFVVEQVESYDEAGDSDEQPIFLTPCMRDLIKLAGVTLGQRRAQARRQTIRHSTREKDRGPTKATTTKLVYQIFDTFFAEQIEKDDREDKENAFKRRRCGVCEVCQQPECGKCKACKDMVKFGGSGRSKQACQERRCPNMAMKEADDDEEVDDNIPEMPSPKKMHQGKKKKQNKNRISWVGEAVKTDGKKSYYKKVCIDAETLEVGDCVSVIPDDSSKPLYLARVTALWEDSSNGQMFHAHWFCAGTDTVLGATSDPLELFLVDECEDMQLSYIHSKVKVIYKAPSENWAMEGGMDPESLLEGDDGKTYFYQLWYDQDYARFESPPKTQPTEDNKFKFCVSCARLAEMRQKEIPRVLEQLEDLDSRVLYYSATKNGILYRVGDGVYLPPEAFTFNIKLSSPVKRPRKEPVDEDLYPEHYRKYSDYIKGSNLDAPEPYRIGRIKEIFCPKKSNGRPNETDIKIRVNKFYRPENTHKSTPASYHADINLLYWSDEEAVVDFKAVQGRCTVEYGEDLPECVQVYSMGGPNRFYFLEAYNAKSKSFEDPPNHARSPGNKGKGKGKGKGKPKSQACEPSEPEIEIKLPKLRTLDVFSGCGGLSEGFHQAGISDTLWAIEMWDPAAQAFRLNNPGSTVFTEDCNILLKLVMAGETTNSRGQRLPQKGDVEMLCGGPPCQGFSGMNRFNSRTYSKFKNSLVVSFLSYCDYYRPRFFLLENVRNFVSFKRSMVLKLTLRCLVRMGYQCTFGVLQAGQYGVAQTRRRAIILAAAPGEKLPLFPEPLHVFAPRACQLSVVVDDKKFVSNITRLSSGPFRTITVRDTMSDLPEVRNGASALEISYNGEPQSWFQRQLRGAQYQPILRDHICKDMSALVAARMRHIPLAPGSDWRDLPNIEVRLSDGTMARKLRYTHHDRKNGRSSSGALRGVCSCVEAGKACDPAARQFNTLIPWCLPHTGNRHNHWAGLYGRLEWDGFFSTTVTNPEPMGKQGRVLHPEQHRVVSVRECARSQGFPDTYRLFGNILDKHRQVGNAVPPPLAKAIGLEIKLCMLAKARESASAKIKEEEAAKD
procedureText: inhibition; tritiated methyl incorporation from SAM
condition: hairpin
outcomeMeasure: IC50

- CCTATGCGATCGAGTTTTCTCGATCGCATAGG (structured_DNA, deoxy-zebularine at 21 and 25; PS backbone [21,25]) [MTC-432]: 8.3 nM
- CCTATGCGATCGAGTTTTCTCGATCGCATAGG (structured_DNA, 5mC at 7 and 11; zebularine (pyrimidin-2-one ribonucleoside) at 21 and 25; phosphodiester [7,11,21,25]) [MTC-427 (MTC-423m)]: 295 nM
- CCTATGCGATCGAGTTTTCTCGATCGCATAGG (structured_DNA, 5mC at 7 and 11; 5-aza-5,6-dihydro-dC at 21 and 25; phosphodiester [7,11,21,25]) [MTC-425 (MTC-422m)]: 504 nM
- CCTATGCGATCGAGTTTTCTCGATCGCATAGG (structured_DNA, 5mC at 7 and 11; deoxy-zebularine at 21 and 25; PS backbone [7,11,21,25]) [MTC-433]: 4.22 nM
